# run-description: self-splicing fitness, log relative to wild type (ln ratio); higher = more splicing; Tetrahymena group I intron in knt gene, E. coli kanamycin selection, DiMSum; sequences stand for … in CUCUCU…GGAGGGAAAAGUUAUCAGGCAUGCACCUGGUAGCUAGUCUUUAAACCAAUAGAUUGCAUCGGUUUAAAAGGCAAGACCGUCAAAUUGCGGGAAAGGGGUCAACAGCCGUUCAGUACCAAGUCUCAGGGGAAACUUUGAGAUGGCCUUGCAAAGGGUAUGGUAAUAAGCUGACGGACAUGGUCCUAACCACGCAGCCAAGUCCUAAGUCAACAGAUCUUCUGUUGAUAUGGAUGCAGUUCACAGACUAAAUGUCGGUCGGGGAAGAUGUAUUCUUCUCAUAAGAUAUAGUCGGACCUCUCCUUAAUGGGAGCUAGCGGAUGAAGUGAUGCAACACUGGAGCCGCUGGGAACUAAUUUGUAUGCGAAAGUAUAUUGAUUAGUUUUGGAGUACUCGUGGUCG;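 further: selection with 25 µg/mL kanamycin versus none on LB agar overnight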
# particulars: 30 °C
Categorized via self-splicing fitness (ln): low end = under -3, middle = from -3 up to -2, high end = -2 and over

[
  {
    "residue-string": "CUCAAGCAAUAUUACGAUGU",
    "class-name": "middle"
  },
  {
    "residue-string": "GAAUAGCAAUAUUACGUUAG",
    "class-name": "low end"
  },
  {
    "residue-string": "UUAUAGCAAUAUUACGUCUA",
    "class-name": "high end"
  },
  {
    "residue-string": "AUCUAGCAAUAUUACGUCUA",
    "class-name": "middle"
  },
  {
    "residue-string": "AUGCAGCAAUAUUACGACGG",
    "class-name": "high end"
  },
  {
    "residue-string": "GACAAGCAAUAUUACGAAUG",
    "class-name": "middle"
  },
  {
    "residue-string": "GACAAGCAAUAUUACGCCCU",
    "class-name": "high end"
  },
  {
    "residue-string": "GAGCAGCAAUAUUACGAAAA",
    "class-name": "middle"
  },
  {
    "residue-string": "GGAGAGCAAUAUUACGAAUC",
    "class-name": "low end"
  },
  {
    "residue-string": "CUAUAGCAAUAUUACGGUAC",
    "class-name": "low end"
  },
  {
    "residue-string": "CCUUAGCAAUAUUACGAUUA",
    "class-name": "middle"
  },
  {
    "residue-string": "GCCCAGCAAUAUUACGAAAA",
    "class-name": "high end"
  },
  {
    "residue-string": "CGAUAGCAAUAUUACGAUGU",
    "class-name": "high end"
  },
  {
    "residue-string": "CUAUAGCAAUAUUACGGAUU",
    "class-name": "low end"
  },
  {
    "residue-string": "AUCGAGCAAUAUUACGAGUG",
    "class-name": "low end"
  },
  {
    "residue-string": "UUCUAGCAAUAUUACGGACA",
    "class-name": "high end"
  },
  {
    "residue-string": "GAUGAGCAAUAUUACGGAGC",
    "class-name": "low end"
  },
  {
    "residue-string": "CUAUAGCAAUAUUACGUUGC",
    "class-name": "middle"
  },
  {
    "residue-string": "UUUCAGCAAUAUUACGCCCA",
    "class-name": "high end"
  },
  {
    "residue-string": "UGGAAGCAAUAUUACGUGGG",
    "class-name": "middle"
  },
  {
    "residue-string": "CCCCAGCAAUAUUACGGCGC",
    "class-name": "low end"
  },
  {
    "residue-string": "CCAGAGCAAUAUUACGGAGU",
    "class-name": "low end"
  },
  {
    "residue-string": "UCACAGCAAUAUUACGCCUC",
    "class-name": "middle"
  },
  {
    "residue-string": "CUUCAGCAAUAUUACGGGUU",
    "class-name": "low end"
  },
  {
    "residue-string": "AGUCAGCAAUAUUACGAGGU",
    "class-name": "low end"
  },
  {
    "residue-string": "GUGUAGCAAUAUUACGUAAU",
    "class-name": "high end"
  },
  {
    "residue-string": "ACAAAGCAAUAUUACGAAUG",
    "class-name": "high end"
  },
  {
    "residue-string": "GCGCAGCAAUAUUACGUCCU",
    "class-name": "high end"
  },
  {
    "residue-string": "ACCUAGCAAUAUUACGCUCC",
    "class-name": "high end"
  },
  {
    "residue-string": "CUUCAGCAAUAUUACGGGUG",
    "class-name": "high end"
  },
  {
    "residue-string": "ACUCAGCAAUAUUACGUUGA",
    "class-name": "middle"
  },
  {
    "residue-string": "UUAGAGCAAUAUUACGCUCU",
    "class-name": "low end"
  },
  {
    "residue-string": "AAUGAGCAAUAUUACGGGUG",
    "class-name": "low end"
  },
  {
    "residue-string": "GAUUAGCAAUAUUACGGAUU",
    "class-name": "low end"
  },
  {
    "residue-string": "GGCCAGCAAUAUUACGGCAA",
    "class-name": "high end"
  },
  {
    "residue-string": "GGGUAGCAAUAUUACGUGUG",
    "class-name": "high end"
  },
  {
    "residue-string": "UGCUAGCAAUAUUACGUACG",
    "class-name": "high end"
  },
  {
    "residue-string": "AUUUAGCAAUAUUACGUAAU",
    "class-name": "high end"
  },
  {
    "residue-string": "GGUCAGCAAUAUUACGGCGC",
    "class-name": "high end"
  },
  {
    "residue-string": "GAGCAGCAAUAUUACGGCCG",
    "class-name": "high end"
  },
  {
    "residue-string": "CUUCAGCAAUAUUACGACAG",
    "class-name": "high end"
  },
  {
    "residue-string": "GGUAAGCAAUAUUACGACCC",
    "class-name": "high end"
  },
  {
    "residue-string": "GGGCAGCAAUAUUACGCUAG",
    "class-name": "high end"
  },
  {
    "residue-string": "ACACAGCAAUAUUACGACAA",
    "class-name": "high end"
  },
  {
    "residue-string": "GACUAGCAAUAUUACGCUCU",
    "class-name": "high end"
  },
  {
    "residue-string": "GAAGAGCAAUAUUACGGGUG",
    "class-name": "low end"
  },
  {
    "residue-string": "UGAUAGCAAUAUUACGUGUG",
    "class-name": "high end"
  },
  {
    "residue-string": "UGUGAGCAAUAUUACGGGCA",
    "class-name": "high end"
  },
  {
    "residue-string": "CCCUAGCAAUAUUACGGCGU",
    "class-name": "middle"
  },
  {
    "residue-string": "GAGGAGCAAUAUUACGACGC",
    "class-name": "high end"
  },
  {
    "residue-string": "GCGAAGCAAUAUUACGUAUC",
    "class-name": "low end"
  },
  {
    "residue-string": "GGUCAGCAAUAUUACGCCGG",
    "class-name": "middle"
  },
  {
    "residue-string": "CCCAAGCAAUAUUACGACUU",
    "class-name": "low end"
  },
  {
    "residue-string": "AAGAAGCAAUAUUACGGCAU",
    "class-name": "high end"
  },
  {
    "residue-string": "AAAAAGCAAUAUUACGGAUG",
    "class-name": "middle"
  },
  {
    "residue-string": "UAUCAGCAAUAUUACGACGG",
    "class-name": "high end"
  },
  {
    "residue-string": "GUCCAGCAAUAUUACGUAAC",
    "class-name": "high end"
  },
  {
    "residue-string": "ACUAAGCAAUAUUACGUUAA",
    "class-name": "middle"
  },
  {
    "residue-string": "GAGUAGCAAUAUUACGAAUU",
    "class-name": "middle"
  },
  {
    "residue-string": "UGAAAGCAAUAUUACGGUGU",
    "class-name": "low end"
  },
  {
    "residue-string": "GCCAAGCAAUAUUACGGCUU",
    "class-name": "low end"
  }
]
